Origin of the recorded values: patent US20250027068

measured-target: pooled human IgG (human IgG1,2,3 and 4)
readout: Enzyme Activity Endpoint Assay (purified): Fc (ng/µL)
Quick note: give the figure in ng/µL, leave out the unit.

Given the entry PRT-338 (protein) MTITSVWTKGVTPPTPEDFRENNEDVLHAPYLANQGWYDITKAFDGKDNLLCGAATAGNMLHWWFDQNKEEIERYLKKHPEKQKIIFNNQELFDVKAAIDTKDSQTNSKLFNYFRDKAFPNLSARQLGVMPDLVLDMFINGYYLNLGKTQSTDVNRPYQDKDKRGGIFDAVFTRGDQTTLLTARHDLKNKGLNEISDLIKQELTEGKALALSHTYANVSINHVINLWGADFDAEGNLEAIYVTDSDANASIGMKKYFVGRNAHGKVAISAKKIEGDNIGAQVLGLFTLSLGQDIWQKLS , report its measured Enzyme Activity Endpoint Assay (purified): Fc.
203
